tested on: NCI-H322M; assay: Anticancer activity against human NCI-H322M cells after 48 hrs by sulforhodamine B assay; type: functional; conditions: Homo sapiens, NCI-H322M, 48 h
measureName: GI50 (µM)
Note: unit µM is implicit; provide only the numeric part.

Reference set, count: 4
CCCCCCCCCCCCCCCC[n+]1ccn(C)c1.[Cl-] = 1.74
CCCCCCCCCCCCCCCCCC[n+]1ccn(C)c1.FC(F)(F)C(F)(F)[P-](F)(F)(F)(C(F)(F)C(F)(F)F)C(F)(F)C(F)(F)F = 0.406
CCCCCCCCCCCCCCCCCC[n+]1ccn(C)c1.O=S(=O)([N-]S(=O)(=O)C(F)(F)F)C(F)(F)F = 1.52
CCCCCCCCCCCC[n+]1ccn(C)c1.[Cl-] = 22.6

Consider now this further molecule.
Any idea what GI50 was measured for "CCCCCCCCCCCCCCCCCC[n+]1ccn(C)c1.[Cl-]" ?
1.3
